test: Plasma clearance in dog; type: ADME, Canis lupus familiaris
property: clearance
// unit must come after the numeric part

                                   compound   property  observed_value
0  CCCN(C[C@H](C)O)[C@H](c1ccccn1)[C@@H](c1ccccn1)N1C2CCCC1CC2  clearance     3 mL/min/kg
1  CCCN(CC)[C@H](c1ccccn1)[C@@H](c1ccccn1)N(CCOC)C[C@H](C)CO  clearance    25 mL/min/kg
2  COCCN(C[C@H](C)O)[C@H](c1ccccn1)[C@@H](c1ccccn1)N1C2CCC1CC(OC)C2 (some centres undefined)  clearance    25 mL/min/kg
3  CCCN(CCC)[C@H](c1ccccn1)[C@@H](c1ccccn1)N(CCOC)C[C@H](C)O  clearance    21 mL/min/kg
4  CCCN(CCC)[C@H](c1ccccn1)[C@@H](c1ccccn1)N(CCC)C[C@H](O)CO  clearance   6.1 mL/min/kg
5  CCCN(CC)[C@H](c1ccccn1)[C@@H](c1ccccn1)N(CC)CCC  clearance    16 mL/min/kg
6  CCCN(CC)[C@@H](c1ccccn1)[C@H](c1cccc(C#N)c1)N(CCOC)C[C@@H](C)CO  clearance    37 mL/min/kg
7  CCCN(CC)[C@H](c1ccccn1)[C@@H](c1cccc(C#N)c1)N(CCOC)C[C@H](C)CO  clearance    44 mL/min/kg

**Query** Which value of clearance has been reported for CCCN(CCC)[C@H](c1ccccn1)[C@@H](c1ccccn1)N(C[C@@H](C)O)C[C@@H](C)O in the records?
**Result** 16 mL/min/kg

Where do these numbers come from? They come from ChEMBL document CHEMBL4392823.
